The reported measurements were obtained from the supplement of paper PMC10567573.

Listing of entries alongside the reported protein stability index.
B1: SLC19A2 (parent)
chain: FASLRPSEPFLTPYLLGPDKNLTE

Variants of: B1
Assay: protein stability index of a GFP-peptide fusion (GPS, HEK-293T) (PSI 1-6); higher = more stable;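 further: lentivirally expressed fusions sorted by FACS into six bins by GFP to DsRed ratio, PSI derived from sequencing read proportions per bin multiplied by bin number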
Settings: c terminus: a fixed tail appended
Would you mind answering with just the numeric figure?

Example variants with recorded protein stability index:
[
  {
    "Variant Designation": "L4A",
    "protein stability index": 1.89
  },
  {
    "Variant Designation": "A2V",
    "protein stability index": 2.5
  },
  {
    "Variant Designation": "L22N",
    "protein stability index": 2.35
  }
]

Recorded result, P9Q , protein stability index: 1.98

Sample T23A ; protein stability index observed: 2.24

Looking up L16Q , I see its protein stability index listed as 1.8

Query A2P yields protein stability index of 2.6

Quick note, protein stability index for L4W landed at 3.5

Notebook: T23H , protein stability index read as 2.8

R5M yielded protein stability index of 1.94

Noted for F1D : its protein stability index reads 4.38

According to the records, this variant E8K displays protein stability index of 2.1
